Consider the following compounds and their measured Dmax readings.
# testTarget: HiBit-BRG1 fusion protein (Homo sapiens)
# Construct: expressed in transfected cells
# assayText: HiBiT-BRG1 cell-based degradation assay (Nano-Glo HiBiT Lytic Detection, 24 h)
# conditionInfo: HeLa cell line expressing HiBit-BRG1 and LgBit, read-out: BRG1 HiBit Degradation Maximum (%)
propertyLabel: Dmax

INSERT INTO results (compound, reportedresult) VALUES
  ('Cc1ncsc1-c1ccc([C@H](C)NC(=O)[C@@H]2C[C@@H](O)CN2C(=O)[C@@H](c2cc(N3CCC(CN4CC(c5cc6cc(-c7ccccc7O)nnc6[nH]5)C4)CC3)no2)C(C)C)cc1 (racemic) [Compound 247]', '> 50%'),
  ('Cc1ncsc1-c1ccc([C@H](C)NC(=O)[C@@H]2C[C@@H](O)CN2C(=O)[C@@H](c2cc(OCCNC(=O)[C@H]3CCc4[nH]c5nnc(-c6ccccc6O)cc5c4C3)no2)C(C)C)cc1 (single isomer, unassigned) [Compound 167]', '> 50%'),
  ('Cc1ncsc1C12CC(CNC(=O)[C@@H]3C[C@@H](O)CN3C(=O)[C@@H](c3cc(OCCN4CC(c5cc6cc(-c7ccccc7O)nnc6[nH]5)C4)no3)C(C)C)(C1)C2 (single isomer, unassigned) [Compound 115]', '< 50%'),
  ('Cc1ncsc1-c1ccc([C@H](C)NC(=O)[C@@H]2C[C@@H](O)CN2C(=O)[C@@H](c2cc(N3CC(CN4CC(c5cc6cc(-c7ccccc7O)nnc6[nH]5)C4)C3)no2)C(C)C)cc1 (single isomer, unassigned) [Compound 163]', '> 50%');

---

# testTarget: HiBit-BRM fusion protein (Homo sapiens, UniProt P51531)
# Construct: expressed in transfected cells
# Sequence (P51531 whole entry, the tested form may be a part): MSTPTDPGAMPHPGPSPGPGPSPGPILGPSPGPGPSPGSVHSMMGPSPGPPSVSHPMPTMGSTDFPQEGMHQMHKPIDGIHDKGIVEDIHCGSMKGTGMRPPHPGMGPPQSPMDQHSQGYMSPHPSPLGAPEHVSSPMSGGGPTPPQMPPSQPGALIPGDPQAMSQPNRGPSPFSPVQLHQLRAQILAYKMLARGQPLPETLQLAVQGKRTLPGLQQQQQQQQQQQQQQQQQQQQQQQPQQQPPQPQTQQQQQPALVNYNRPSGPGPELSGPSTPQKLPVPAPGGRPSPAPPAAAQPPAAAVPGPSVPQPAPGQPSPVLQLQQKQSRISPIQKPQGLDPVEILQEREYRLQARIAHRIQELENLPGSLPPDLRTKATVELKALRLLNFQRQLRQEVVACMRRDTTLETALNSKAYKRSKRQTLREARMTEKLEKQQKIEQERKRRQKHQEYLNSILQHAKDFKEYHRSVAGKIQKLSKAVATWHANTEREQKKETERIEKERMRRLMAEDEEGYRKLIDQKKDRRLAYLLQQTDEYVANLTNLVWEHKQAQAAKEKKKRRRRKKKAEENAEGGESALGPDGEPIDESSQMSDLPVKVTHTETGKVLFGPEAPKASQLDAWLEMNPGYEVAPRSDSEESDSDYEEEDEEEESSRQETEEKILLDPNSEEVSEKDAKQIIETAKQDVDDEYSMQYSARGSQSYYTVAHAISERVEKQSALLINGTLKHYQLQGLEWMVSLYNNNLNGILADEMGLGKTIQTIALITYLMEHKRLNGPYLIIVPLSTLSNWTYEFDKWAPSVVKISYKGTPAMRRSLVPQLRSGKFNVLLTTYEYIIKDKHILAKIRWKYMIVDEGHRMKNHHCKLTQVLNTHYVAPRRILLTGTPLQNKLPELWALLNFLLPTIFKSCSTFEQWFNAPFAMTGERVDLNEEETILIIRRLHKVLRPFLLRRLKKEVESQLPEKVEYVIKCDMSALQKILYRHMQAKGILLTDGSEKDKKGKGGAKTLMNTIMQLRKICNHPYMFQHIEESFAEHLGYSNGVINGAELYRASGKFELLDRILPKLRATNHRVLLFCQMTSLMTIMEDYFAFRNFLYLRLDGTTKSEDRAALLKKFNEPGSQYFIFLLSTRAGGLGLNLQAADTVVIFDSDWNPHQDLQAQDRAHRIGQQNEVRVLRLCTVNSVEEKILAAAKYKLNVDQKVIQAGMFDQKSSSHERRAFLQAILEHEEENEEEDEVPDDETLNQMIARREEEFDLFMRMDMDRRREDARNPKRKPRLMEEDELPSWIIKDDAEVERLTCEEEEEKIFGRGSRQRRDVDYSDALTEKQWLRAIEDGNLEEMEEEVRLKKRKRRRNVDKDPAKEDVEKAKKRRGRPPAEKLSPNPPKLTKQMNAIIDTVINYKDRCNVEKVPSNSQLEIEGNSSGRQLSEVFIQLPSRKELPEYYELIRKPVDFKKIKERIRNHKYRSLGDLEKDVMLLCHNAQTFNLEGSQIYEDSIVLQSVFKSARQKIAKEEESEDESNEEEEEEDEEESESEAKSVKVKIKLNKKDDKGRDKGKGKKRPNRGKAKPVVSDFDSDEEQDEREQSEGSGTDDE
# assayText: HiBiT-BRM cell-based degradation assay (Nano-Glo HiBiT Lytic Detection, 24 h)
# conditionInfo: HeLa cell line expressing HiBiT-BRM, read-out: BRM HiBit Degradation IC50
propertyLabel: DC50

INSERT INTO results (molecule, propertylabel, reportedresult) VALUES
  ('Cc1ncsc1-c1ccc([C@H](C)NC(=O)[C@@H]2C[C@@H](O)CN2C(=O)[C@@H](c2cc(N3CCC(N4CC5(Cc6cc(-c7ccccc7O)nnc6N5)C4)CC3)no2)C(C)C)cc1 (racemic)', 'DC50', '> 10 nM'),
  ('Cc1ncsc1-c1ccc([C@H](C)NC(=O)[C@@H]2C[C@@H](O)CN2C(=O)[C@H](c2cc([C@H]3CC[C@H](c4cnc(N5CCC(c6c[nH]c7nnc(-c8ccccc8O)cc67)CC5)nc4)CC3)no2)C(C)C)cc1', 'DC50', '> 10 nM'),
  ('Cc1ncsc1-c1ccc([C@H](C)NC(=O)[C@@H]2C[C@@H](O)CN2C(=O)[C@@H](NC(=O)CCCCCCCCC(=O)N2CC(c3cc4cc(-c5ccccc5O)nnc4[nH]3)C2)C(C)(C)C)cc1', 'DC50', '> 100 nM'),
  ('Cc1ncsc1-c1ccc([C@H](C)NC(=O)[C@@H]2C[C@@H](O)CN2C(=O)[C@@H](c2cc(OCCN3CC[C@@H](c4[nH]c5nnc(-c6ccccc6O)cc5c4C)C3)no2)C(C)C)cc1 (racemic)', 'DC50', '< 10 nM'),
  ('Cc1ncsc1-c1ccc([C@H](C)NC(=O)[C@@H]2C[C@@H](O)CN2C(=O)[C@@H](c2cc(OCCNC(=O)[C@H]3C[C@@]4(Cc5cc(-c6ccccc6O)nnc5N4)C3)no2)C(C)C)cc1 (racemic)', 'DC50', '> 100 nM');

---

# testTarget: HiBit-BRG1 fusion protein (Homo sapiens)
# Construct: expressed in transfected cells
# assayText: HiBiT-BRG1 cell-based degradation assay (Nano-Glo HiBiT Lytic Detection, 24 h)
# conditionInfo: HeLa cell line expressing HiBit-BRG1 and LgBit, read-out: BRG1 HiBit Degradation Maximum (%)
# maps each entry to its Dmax
propertyLabel: Dmax

INSERT INTO assay_data (molecule, reportedresult) VALUES
  ('Cc1ncsc1-c1ccc([C@H](C)NC(=O)[C@@H]2C[C@@H](O)CN2C(=O)[C@@H](c2cc(OCCNCCN3CC(c4cc5cc(-c6ccccc6O)nnc5[nH]4)C3)no2)C(C)C)cc1 (racemic)', '> 50%'),
  ('Cc1ncsc1-c1ccc([C@H](C)NC(=O)[C@@H]2C[C@@H](O)CN2C(=O)[C@@H](c2cc(OCCN3CC(c4cc5cc(-c6ccccc6O)nnc5n4C(F)F)C3)no2)C(C)C)cc1 (racemic)', '< 50%'),
  ('O=C1CCC(N2C(=O)c3ccc(NCCCCCCCCC(=O)N4CC(c5cc6cc(-c7ccccc7O)nnc6[nH]5)C4)cc3C2=O)C(=O)N1 (centres unmarked)', '< 50%'),
  ('Cc1ncsc1-c1ccc([C@H](C)NC(=O)[C@@H]2C[C@@H](O)CN2C(=O)[C@@H](c2cc(OCCN3CCC[C@@H](c4c[nH]c5nnc(-c6ccccc6O)cc45)C3)no2)C(C)C)cc1 (racemic)', '< 50%'),
  ('Cc1ncsc1-c1ccc([C@H](C)NC(=O)[C@@H]2C[C@@H](O)CN2C(=O)[C@@H](c2cc(OCCN3CC4(Cc5cc(-c6ccccc6O)nnc5N4)C3)no2)C(C)C)cc1 (racemic)', '> 75%');

---

# testTarget: HiBit-BRG1 fusion protein (Homo sapiens, UniProt P51532)
# Construct: expressed in transfected cells
# Sequence (P51532 whole entry, the tested form may be a part): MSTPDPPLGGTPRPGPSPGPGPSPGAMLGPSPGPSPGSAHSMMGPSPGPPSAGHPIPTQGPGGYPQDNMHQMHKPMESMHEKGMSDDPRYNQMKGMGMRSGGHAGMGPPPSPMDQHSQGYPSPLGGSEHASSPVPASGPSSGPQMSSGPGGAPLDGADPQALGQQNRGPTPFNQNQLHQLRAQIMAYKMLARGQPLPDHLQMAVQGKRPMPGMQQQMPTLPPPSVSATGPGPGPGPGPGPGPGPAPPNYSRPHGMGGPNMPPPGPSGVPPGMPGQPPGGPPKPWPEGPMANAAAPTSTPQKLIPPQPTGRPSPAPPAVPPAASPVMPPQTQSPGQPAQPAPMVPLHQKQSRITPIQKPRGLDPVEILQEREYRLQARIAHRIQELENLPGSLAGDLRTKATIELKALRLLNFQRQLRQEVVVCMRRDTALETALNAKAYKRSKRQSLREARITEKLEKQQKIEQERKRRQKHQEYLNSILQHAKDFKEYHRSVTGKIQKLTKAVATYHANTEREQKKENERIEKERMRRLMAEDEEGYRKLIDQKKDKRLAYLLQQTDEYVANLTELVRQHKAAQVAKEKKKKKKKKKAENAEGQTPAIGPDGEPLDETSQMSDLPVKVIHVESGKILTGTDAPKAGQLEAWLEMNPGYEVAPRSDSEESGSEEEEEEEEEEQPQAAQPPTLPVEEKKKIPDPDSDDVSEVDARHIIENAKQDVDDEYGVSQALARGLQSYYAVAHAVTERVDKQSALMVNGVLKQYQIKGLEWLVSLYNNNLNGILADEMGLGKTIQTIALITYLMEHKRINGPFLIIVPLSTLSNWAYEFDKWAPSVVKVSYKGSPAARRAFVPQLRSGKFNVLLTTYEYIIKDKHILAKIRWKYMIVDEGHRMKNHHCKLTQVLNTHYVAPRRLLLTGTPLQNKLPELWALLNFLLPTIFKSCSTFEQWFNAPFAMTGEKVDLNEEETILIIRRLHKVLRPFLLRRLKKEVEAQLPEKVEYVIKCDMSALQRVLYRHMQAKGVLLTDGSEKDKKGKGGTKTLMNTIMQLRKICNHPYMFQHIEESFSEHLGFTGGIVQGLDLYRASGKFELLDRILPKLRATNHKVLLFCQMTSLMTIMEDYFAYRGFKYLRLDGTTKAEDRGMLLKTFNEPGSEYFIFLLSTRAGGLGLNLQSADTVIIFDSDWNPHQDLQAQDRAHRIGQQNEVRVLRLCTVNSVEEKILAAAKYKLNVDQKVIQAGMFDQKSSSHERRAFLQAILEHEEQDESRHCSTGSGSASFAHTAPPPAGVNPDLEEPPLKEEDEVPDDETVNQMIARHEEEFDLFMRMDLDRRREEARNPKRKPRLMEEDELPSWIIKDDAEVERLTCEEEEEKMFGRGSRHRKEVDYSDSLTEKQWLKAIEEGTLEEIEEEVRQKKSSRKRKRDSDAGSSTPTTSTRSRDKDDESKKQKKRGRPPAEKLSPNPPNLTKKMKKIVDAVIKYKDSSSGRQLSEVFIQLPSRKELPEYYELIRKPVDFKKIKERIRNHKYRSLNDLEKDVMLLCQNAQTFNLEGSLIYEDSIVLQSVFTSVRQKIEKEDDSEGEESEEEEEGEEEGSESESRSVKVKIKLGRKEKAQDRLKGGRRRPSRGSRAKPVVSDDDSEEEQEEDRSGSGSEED
# assayText: HiBiT-BRG1 cell-based degradation assay (Nano-Glo HiBiT Lytic Detection, 24 h)
# conditionInfo: HeLa cell line expressing HiBit-BRG1 and LgBit, read-out: BRMG1 HiBit Degradation IC50
Reported values of DC50 for individual entries
propertyLabel: DC50

INSERT INTO measurements (molecule, propertylabel, reportedresult) VALUES
  ('Cc1ncsc1-c1ccc([C@H](C)NC(=O)[C@@H]2C[C@@H](O)CN2C(=O)[C@@H](c2cc(OCCN3CC4(CC(c5cc6cc(-c7ccccc7O)nnc6[nH]5)C4)C3)no2)C(C)C)cc1 (racemic)', 'DC50', '> 100 nM'),
  ('Cc1ncsc1-c1ccc([C@H](C)NC(=O)[C@@H]2C[C@@H](O)CN2C(=O)[C@@H](c2cc(C3CN(C(=O)[C@H]4CCc5[nH]c6nnc(-c7ccccc7O)cc6c5C4)C3)no2)C(C)C)cc1 (relative stereo)', 'DC50', '> 100 nM'),
  ('Cc1ncsc1-c1ccc([C@H](C)NC(=O)[C@@H]2C[C@@H](O)CN2C(=O)[C@@H](c2cc(OCCN3CCC(C)(c4cc5cc(-c6ccccc6O)nnc5[nH]4)CC3)no2)C(C)C)cc1 (racemic)', 'DC50', '> 1000 nM'),
  ('Cc1ncsc1-c1ccc(CNC(=O)[C@@H]2C[C@@H](O)CN2C(=O)[C@@H](NC(=O)CCN(C)C23CC(c4cc5cc(-c6ccccc6O)nnc5[nH]4)(C2)C3)C(C)(C)C)cc1 (racemic)', 'DC50', '> 1000 nM');

---

The following compounds are listed with their measured DC50 values.
# testTarget: HiBit-BRG1 fusion protein (Homo sapiens, UniProt P51532)
# Construct: expressed in transfected cells
# assayText: HiBiT-BRG1 cell-based degradation assay (Nano-Glo HiBiT Lytic Detection, 24 h)
# conditionInfo: HeLa cell line expressing HiBit-BRG1 and LgBit, read-out: BRMG1 HiBit Degradation IC50
propertyLabel: DC50

INSERT INTO assay_data (compound, reportedresult) VALUES
  ('Cc1ncsc1-c1ccc([C@H](C)NC(=O)[C@@H]2C[C@@H](O)CN2C(=O)[C@@H](c2cc(OCCNC3CC[C@]34C[C@@H](c3cc5cc(-c6ccccc6O)nnc5[nH]3)C4)no2)C(C)C)cc1 (mixture of isomers) [Compound 133]', '> 0.1 µM'),
  ('Cc1ncsc1-c1ccc(CNC(=O)[C@@H]2C[C@@H](O)CN2C(=O)[C@@H](NC(=O)CN2CC(c3cc4cc(-c5ccccc5O)nnc4[nH]3)C2)C(C)(C)C)cc1 (racemic) [Compound 61]', '> 1 µM'),
  ('Cc1ncsc1-c1ccc([C@H](C)NC(=O)[C@@H]2C[C@@H](O)CN2C(=O)[C@@H](c2cc(OCCN3CC4(Cc5cc(-c6ccccc6O)nnc5N4)C3)no2)C(C)C)cc1 (racemic) [Compound 186]', '> 0.1 µM'),
  ('Cc1ncsc1-c1ccc([C@H](C)NC(=O)C2C[C@@H](O)CN2C(=O)[C@@H](c2cc(OCCN3C[C@H]4C[C@@H](c5[nH]c6nnc(-c7ccccc7O)cc6c5C)C[C@H]4C3)no2)C(C)C)cc1 (single isomer, unassigned) [Compound 108]', '> 0.01 µM'),
  ('Cc1ncsc1-c1ccc([C@H](C)NC(=O)[C@@H]2C[C@@H](O)CN2C(=O)[C@@H](c2cc(N3CCN(C(=O)[C@H]4CCc5[nH]c6nnc(-c7ccccc7O)cc6c5C4)CC3)no2)C(C)C)cc1 (single isomer, unassigned) [Compound 188]', '> 0.1 µM'),
  ('Cc1ncsc1-c1ccc([C@H](C)NC(=O)[C@@H]2C[C@@H](O)CN2C(=O)[C@@H](c2cc(N3CCN(CCC(=O)N4CC(c5cc6cc(-c7ccccc7O)nnc6[nH]5)C4)CC3)no2)C(C)C)cc1 (racemic) [Compound 268]', '> 1 µM'),
  ('Cc1ncsc1-c1ccc(CNC(=O)[C@@H]2C[C@@H](O)CN2C(=O)[C@@H](NC(=O)CCCC(=O)N2CC(c3cc4cc(-c5ccccc5O)nnc4[nH]3)C2)C(C)(C)C)cc1 [Compound 6]', '> 1 µM'),
  ('Cc1ncsc1-c1ccc([C@H](C)NC(=O)[C@@H]2C[C@@H](O)CN2C(=O)[C@@H](c2cc(C3CCN(C(=O)[C@H]4C[C@]5(Cc6cc(-c7ccccc7O)nnc6N5)C4)CC3)no2)C(C)C)cc1 (racemic) [Compound 75]', '> 0.1 µM'),
  ('Cc1ncsc1-c1ccc([C@H](C)NC(=O)[C@@H]2C[C@@H](O)CN2C(=O)[C@@H](c2cc(OCCN3C[C@@H]4[C@H](C3)[C@H]4c3cc4cc(-c5ccccc5O)nnc4[nH]3)no2)C(C)C)cc1 (racemic) [Compound 308]', '> 0.01 µM'),
  ('Cc1ncsc1-c1ccc([C@H](C)NC(=O)[C@@H]2C[C@@H](O)CN2C(=O)[C@@H](c2cc(N3CCC(C(=O)N4CCc5[nH]c6nnc(-c7ccccc7O)cc6c5[C@H]4C)CC3)no2)C(C)C)cc1 (racemic) [Compound 82]', '> 0.1 µM'),
  ('Cc1ncsc1-c1ccc([C@H](C)NC(=O)[C@@H]2C[C@@H](O)CN2C(=O)[C@@H](c2cc(OCCN(C)C34CC(c5cc6cc(-c7ccccc7O)nnc6[nH]5)(C3)C4)no2)C(C)C)cc1 (racemic) [Compound 302]', '> 0.01 µM'),
  ('Cc1ncsc1-c1ccc([C@H](C)NC(=O)[C@@H]2C[C@@H](O)CN2C(=O)[C@@H](c2cc(OCCNC(=O)[C@H]3CCc4[nH]c5nnc(-c6ccccc6O)cc5c4C3)no2)C(C)C)cc1 (single isomer, unassigned) [Compound 167]', '> 0.1 µM'),
  ('Cc1ncsc1-c1ccc([C@H](C)NC(=O)[C@@H]2C[C@@H](O)CN2C(=O)[C@@H](c2cc(N3CCC(C(=O)N[C@@H]4CCc5[nH]c6nnc(-c7ccccc7O)cc6c5C4)CC3)no2)C(C)C)cc1 (single isomer, unassigned) [Compound 146]', '> 0.1 µM'),
  ('Cc1ncsc1-c1ccc([C@H](C)NC(=O)[C@@H]2C[C@@H](O)CN2C(=O)[C@@H](c2cc(OCCNC(=O)C(=O)N3CC(c4cc5cc(-c6ccccc6O)nnc5[nH]4)C3)no2)C(C)C)cc1 (racemic) [Compound 240]', '> 1 µM'),
  ('Cc1ncsc1-c1ccc([C@H](C)NC(=O)[C@@H]2C[C@@H](O)CN2C(=O)[C@@H](c2cc(N3C[C@H]4C[C@@H]3CN4C(=O)[C@@H]3CCc4[nH]c5nnc(-c6ccccc6O)cc5c4C3)no2)C(C)C)cc1 [Compound 101]', '> 0.01 µM'),
  ('Cc1ncsc1-c1ccc([C@H](C)NC(=O)[C@@H]2C[C@@H](O)CN2C(=O)[C@@H](c2cc(OCCN3CCC(c4cc5cc(-c6ccccc6O)nnc5[nH]4)CC3)no2)C(C)C)cc1 (racemic) [Compound 51]', '> 0.1 µM'),
  ('Cc1ncsc1-c1ccc(CNC(=O)[C@@H]2C[C@@H](O)CN2C(=O)[C@@H](NC(=O)[C@H]2CC[C@H](c3cnc(N4CCC(c5cc6cc(-c7ccccc7O)nnc6[nH]5)CC4)nc3)CC2)C(C)(C)C)cc1 (racemic) [Compound 93]', '> 0.1 µM');

meta.source: patent US20240024488A1
